Result type: log10 IC50 (log10 of the value in nM)
Values below are the log10 of the recorded IC50, with nM as the unit.

Please tell me the measured log10 IC50 for `CCOc1cc(-c2cc(NCCn3c(C)cc4c(C(F)(F)F)ccc(F)c43)ncn2)ccc1C(=O)O` ; system: EP2 (Homo sapiens (Human), UniProt P43116).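 Note: antagonism of PGE2-stimulated cAMP accumulation in SF295 human glioblastoma cells with endogenous EP2, cAMP read by HTRF, expressed relative to DMSO control.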
Sequence (P43116 whole entry): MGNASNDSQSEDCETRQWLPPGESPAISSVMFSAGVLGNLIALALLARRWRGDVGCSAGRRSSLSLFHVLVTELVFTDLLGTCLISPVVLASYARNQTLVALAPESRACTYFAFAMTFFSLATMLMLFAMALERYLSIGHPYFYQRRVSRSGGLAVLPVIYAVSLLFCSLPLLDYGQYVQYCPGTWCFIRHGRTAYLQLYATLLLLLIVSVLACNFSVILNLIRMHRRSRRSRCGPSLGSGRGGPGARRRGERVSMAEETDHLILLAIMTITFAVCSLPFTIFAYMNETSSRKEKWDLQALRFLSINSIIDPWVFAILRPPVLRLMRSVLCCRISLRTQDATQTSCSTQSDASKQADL
3.00

With EP2 (Homo sapiens (Human), UniProt P43116) as the test system, provide measured log10 IC50 for this compound: `COc1ccc(F)c2c1cc(C)n2CCNc1cc(-c2ccc3[nH]ccc3c2)ncn1`
0.85

Given `CCOc1cc(-c2cc(NCCn3c(C)cc4c(OC)ccc(F)c43)ncn2)cc(Cl)c1C(=O)O` , report its log10 IC50 on EP2 (Homo sapiens (Human), UniProt P43116).
1.40

Give the observed log10 IC50 of `COc1ccc(C)c2c1cc(C)n2CCNc1cc(-c2ccc(C(=O)O)c(CC(C)C)c2)ncn1` for EP2 (Homo sapiens (Human), UniProt P43116).
1.26

Send back EP2 (Homo sapiens (Human), UniProt P43116) log10 IC50 of `CCCOc1cc(-c2cc(NCCn3c(C)cc4c(F)cc(F)c(F)c43)ncn2)cc(Cl)c1C(=O)O` only.
0.78

Please indicate recorded log10 IC50 of `COc1ccc(F)c2c1cc(C)n2CCNc1cc(-c2ccc(-c3nc(C(=O)O)cs3)cc2)ncn1` measured with EP2 (Homo sapiens (Human), UniProt P43116).
0.60

For EP2 (Homo sapiens (Human), UniProt P43116), give the measured log10 IC50 of the entry `CCCOc1cc(-c2cc(NCCn3c(C)cc4c(OC)ccc(Cl)c43)ncn2)ccc1C(=O)O`
1.32

Provide measured log10 IC50 on EP2 (Homo sapiens (Human), UniProt P43116) for `Cc1ccc(F)c2c1cc(C)n2CCNc1cc(-c2ccc(C(=O)O)c(OC(F)(F)F)c2)ncn1` please.
1.57
